# testedSystem: CDK2 (Homo sapiens)
# Construct: endogenous in cells; host or cells: MKN1 cells
# assayExplanation: CDK2 degradation in MKN1 cells (AlphaLISA)
# Assay type: cell-based
# measurementSetup: 14 h incubation
# Description: Degradation of CDK2 in MKN1 cells was measured using AlphaLISA technology (PerkinElmer ALSU-TCDK2-A10K). MKN1 cells were maintained in RPMI1640 medium containing 10% FBS+1× penn/strep. […] Under subdued light, the plates were analyzed on an EnVision Microplate Reader (PerkinElmer Model 2009-0030). […] The data were analyzed using Xlfit (v5.3. 1.3) and the dose-dependent CDK2 degradation data were fit using a four-parameter logistic model to calculate DC50.
testReadout: CDK2 degradation 14 h: Average Dmax %

Cc1cc(S(=O)(=O)NC2CCC(N3CCN(c4ccc(C5CCC(=O)NC5=O)c(Cl)c4)CC3)CC2)ccc1Nc1ncc(C(F)(F)F)c(N2CCCC(C)(O)C2)n1 (stereo not drawn) [I-930] :: A (A (>75% o))
Cc1cc(S(=O)(=O)N2CCC3(CCN(CC4CCN(c5ccc6c(c5)n(C)c(=O)n6C5CCC(=O)NC5=O)CC4)CC3)CC2)ccc1Nc1ncc2cc(Cl)c(=O)n(C3CCCC3)c2n1 (stereo not drawn) [I-381] :: A (A (>75% o))
CC1(O)CCCN(c2nc(Nc3ccc(S(=O)(=O)NC4CCC(CN5CCN(c6ccc(C7CCC(=O)NC7=O)c(Cl)c6)CC5)CC4)cc3F)ncc2C(F)(F)F)C1 (stereo not drawn) [I-1107] :: A (A (>75% o))

Data provenance: patent US20240173419A1
